// data source = PubChem BioAssay (NCI)

Tested on: EKVX NSCLC
Assay: NCI tumour cell line growth inhibition, 48 h
measure name: TGI

Query :: State, in one line, measured TGI of C[C@H](CCC(=O)O)[C@H]1CC[C@H]2[C@@H]3[C@H](O)[C@H](O)[C@@H]4C[C@H](O)CC[C@]4(C)[C@H]3CC[C@]12C
Result :: > 100 µM

Query :: State, in one line, measured TGI of Cc1ccc(NC(=O)C(=O)C2C(=O)NC(=O)NC2=O)c(C)c1
Result :: > 100 µM

Query :: State, in one line, measured TGI of Cc1cc(OP2(=O)NCc3ccncc3O2)ccc1Cl (stereo not drawn)
Result :: > 100 µM

###

Tested on: HS 578T breast
Experiment: NCI tumour cell line growth inhibition, 48 h
measure name: TGI

Query :: State, in one line, measured TGI of Cc1cn(C(CO)OC(CO)CN(O)C2C3CC4CC(C3)CC2C4)c(=O)[nH]c1=O (configuration not stated)
Result :: > 100 µM

Query :: State, in one line, measured TGI of O=c1cc(-c2ccccc2)oc2c(O)c(O)ccc12
Result :: > 100 µM

Query :: State, in one line, measured TGI of COc1cc(/C=C2\N=C(c3ccccc3)N(c3nc4ccccc4s3)C2=O)cc(OC)c1OC
Result :: > 100 µM

Query :: State, in one line, measured TGI of CN1CCN(c2ccncc2S(=O)(=O)N2CCN(C)CC2)CC1
Result :: > 100 µM

Query :: State, in one line, measured TGI of C[C@]1(c2nc3c(C(N)=O)cccc3[nH]2)CCCN1
Result :: > 100 µM

Query :: State, in one line, measured TGI of COc1c(C)c(C/C=C(\C)CC/C=C(\C)CC/C=C(\C)CC/C=C(\C)CCC=C(C)C)c(OC)c(OC)c1OC
Result :: > 100 µM

Query :: State, in one line, measured TGI of C/C(CC(O)(C(F)(F)F)C(F)(F)F)=N\NC(N)=S
Result :: > 10 µM

Query :: State, in one line, measured TGI of COc1ccc2cc(C(=O)N3CCC([C@@H](C)C(=O)NCc4ccc5c(c4)OCO5)CC3)[nH]c2c1
Result :: > 100 µM

Query :: State, in one line, measured TGI of CC(C)CC(C#CCCOC(=O)c1ccccc1)OC(=O)c1ccccc1 (configuration not stated)
Result :: > 10 µM

Query :: State, in one line, measured TGI of CSc1c(C(N)=S)c(N)nn1-c1ccccc1
Result :: > 100 µM

Query :: State, in one line, measured TGI of C=CC(=C)CCC(Br)C(C)(C)Br (configuration not stated)
Result :: > 100 µM

Query :: State, in one line, measured TGI of Fc1ccccc1-c1cc(=S)c2cc3c(cc2[nH]1)OCO3
Result :: > 100 µM

Query :: State, in one line, measured TGI of NC1=Nc2ccccc2Sc2nccn21
Result :: 79.1 µM

Query :: State, in one line, measured TGI of Nc1ccc2nc3n(c2c1)C(c1c(F)cccc1F)SC3 (configuration not stated)
Result :: > 100 µM

Query :: State, in one line, measured TGI of NC(=O)c1ccc(I)c([N+](=O)[O-])c1
Result :: > 100 µM

Query :: State, in one line, measured TGI of O=c1oc2ccc(F)cc2c(=O)n1-c1ccc(I)cc1F
Result :: 2.52 µM

Query :: State, in one line, measured TGI of [Mn+3].[O-][Cl+3]([O-])([O-])O.[O-]c1ccccc1C=NCCN1CC1.[O-]c1ccccc1C=NCCN1CC1
Result :: > 100 µM

Query :: State, in one line, measured TGI of COc1cc2c(c(OC)c1OC)-c1ccc(OC)c(=O)cc1C(NC(=O)CCCCCNc1ccc(N=[N+]=[N-])cc1[N+](=O)[O-])CC2 (configuration not stated)
Result :: 4.67 µM

Query :: State, in one line, measured TGI of Cc1ccc(C(=O)C2C=C(c3ccc(C)cc3)SC3C=CCC32)cc1 (configuration not stated)
Result :: 73.8 µM

Query :: State, in one line, measured TGI of COC(=O)[C@H](Cc1ccccc1)NC(=O)OCC1OC(n2cc(C)c(=O)[nH]c2=O)CC1N=[N+]=[N-] (some centres not stated)
Result :: > 100 µM

Query :: State, in one line, measured TGI of O=P(O)(O)c1ccc2c(c1)OCCOCCOCCOCCO2
Result :: > 100 µM

Query :: State, in one line, measured TGI of COc1cc(/C=C/C(=O)c2ccccc2O)ccc1OCCCOc1cc2c(cc1OC)C(=O)N1CCC[C@H]1C=N2
Result :: 0.284 µM

Query :: State, in one line, measured TGI of C=C(C)[C@@H]1C/C=C(/COC(C)=O)CC[C@H]2O[C@@]2(C)CC/C=C(\C)CC1
Result :: > 100 µM

Query :: State, in one line, measured TGI of COC(=O)[C@@H](C)C[C@H](Cc1ccccc1)NC(=O)c1csc([C@@H](C[C@H](C(C)C)N(C)C(=O)[C@@H](NC(=O)[C@H]2CCCCN2C)c2ccc(F)cc2)OC(C)=O)n1
Result :: > 100 µM

Query :: State, in one line, measured TGI of C/C1=C\[C@@H](C)C[C@@H](C)OC(=O)[C@@H](C)NC(=O)[C@H](Cc2ccc(O)c(Br)c2)N(C)C(=O)CNC(=O)[C@H](C)C1
Result :: 0.69 µM

Query :: State, in one line, measured TGI of Cc1cc2[nH]c(=O)c3c4ncccc4cn3c2cc1C
Result :: 52.2 µM

Query :: State, in one line, measured TGI of COc1ccccc1N1C(=O)CSC1c1cccc(Oc2ccccc2)c1 (configuration not stated)
Result :: 44.5 µM

Query :: State, in one line, measured TGI of COc1ccc(/C(=N/OCCCC(=O)O)c2cccs2)cc1
Result :: > 100 µM

Query :: State, in one line, measured TGI of Cc1ccc(N2C=Nn3c(nc4sc5c(c4c3=O)CCCC5)C2)cc1
Result :: 92 µM

Query :: State, in one line, measured TGI of COc1ccc(-c2oc3ncnc(N)c3c2-c2ccc(NC(=O)Nc3cc(C(F)(F)F)ccc3F)cc2)cc1
Result :: 4.67 µM

Query :: State, in one line, measured TGI of C#Cc1cccc(Nc2nc(C)nc3cc(NC(=O)CCl)ccc23)c1
Result :: 10.2 µM

Query :: State, in one line, measured TGI of COC(=O)c1ccc(Oc2nc3ccc(C(F)(F)F)cc3nc2-c2ccccc2)cc1
Result :: > 100 µM
